# EXPERIMENT_NOTES: Pharmacokinetics of intraperitoneal or intravenous injection in CD1 mice
# Format: in vivo
# CONDITION_NOTES: male, CD1, mouse, plasma, ip, 10 mg/kg; read-out: AUClast (h * ng/mL) IP
RECORDED_ENDPOINT: AUC(0-t) (ng·h/mL)
Hi! Could you send only the number? It should be in ng·h/mL, unit omitted.

Indicate the recorded AUC(0-t) value for this compound: Cc1ncsc1-c1ccc(CNC(=O)[C@@H]2C[C@@H](O)CN2C(=O)[C@@H](NC(=O)COCCOc2ccc(Nc3ncc(C(F)(F)F)c(NCc4cccc(N(C)S(C)(=O)=O)c4)n3)cc2)C(C)(C)C)cc1 5870

Tell me measured AUC(0-t) for Cc1ncsc1-c1ccc(CNC(=O)[C@@H]2C[C@@H](O)CN2C(=O)[C@@H](NC(=O)CCOCCCOc2ccc(Nc3ncc(C(F)(F)F)c(NCc4cccc(N(C)S(C)(=O)=O)c4)n3)cc2)C(C)(C)C)cc1 please. 10400

Entry Cc1ncsc1-c1ccc(CNC(=O)[C@@H]2C[C@@H](O)CN2C(=O)[C@@H](NC(=O)COCCCOc2ccc(Nc3ncc(C(F)(F)F)c(NCc4cccc(N(C)S(C)(=O)=O)c4)n3)cc2)C(C)(C)C)cc1 needs its AUC(0-t) filled in; supply it. 6500

# return recorded AUC(0-t) for input Cc1ncsc1-c1ccc(CNC(=O)[C@@H]2C[C@@H](O)CN2C(=O)[C@@H](NC(=O)CCOCCOc2ccc(Nc3ncc(C(F)(F)F)c(NCc4cccc(N(C)S(C)(=O)=O)c4)n3)cc2)C(C)(C)C)cc1 6260

* * *

# EXPERIMENT_NOTES: Pharmacokinetics of intraperitoneal or intravenous injection in CD1 mice
# Assay type: in vivo
# CONDITION_NOTES: male, CD1, mouse, plasma, ip, 10 mg/kg, IP 10 mg/kg, CD1 mice plasma, 1 h; read-out: Mean
RECORDED_ENDPOINT: concentration at 1 h (ng/mL)
Give just the number in ng/mL; leave the unit off.

Return value of concentration at 1 h for input Cc1ncsc1-c1ccc(CNC(=O)[C@@H]2C[C@@H](O)CN2C(=O)[C@@H](NC(=O)CCOCCCOc2ccc(Nc3ncc(C(F)(F)F)c(NCc4cccc(N(C)S(C)(=O)=O)c4)n3)cc2)C(C)(C)C)cc1 , no commentary. 1900

Answer with the recorded concentration at 1 h for the compound listed here: CN(c1cccc(CNc2nc(Nc3ccc(OCCCOCCC(=O)NCCOc4cccc5c4C(=O)N(C4CCC(=O)NC4=O)C5=O)cc3)ncc2C(F)(F)F)c1)S(C)(=O)=O (centres unmarked) 106

For the compound Cc1ncsc1-c1ccc(CNC(=O)[C@@H]2C[C@@H](O)CN2C(=O)[C@@H](NC(=O)COCCCOc2ccc(Nc3ncc(C(F)(F)F)c(NCc4cccc(N(C)S(C)(=O)=O)c4)n3)cc2)C(C)(C)C)cc1 , give its measured concentration at 1 h value. 1450

Return concentration at 1 h (reported value) for this compound: Cc1ncsc1-c1ccc(CNC(=O)[C@@H]2C[C@@H](O)CN2C(=O)[C@@H](NC(=O)CCOCCOc2ccc(Nc3ncc(C(F)(F)F)c(NCc4cccc(N(C)S(C)(=O)=O)c4)n3)cc2)C(C)(C)C)cc1 2260

Give a short answer stating reported concentration at 1 h for Cc1ncsc1-c1ccc(CNC(=O)[C@@H]2C[C@@H](O)CN2C(=O)[C@@H](NC(=O)COCCOc2ccc(Nc3ncc(C(F)(F)F)c(NCc4cccc(N(C)S(C)(=O)=O)c4)n3)cc2)C(C)(C)C)cc1 . 1560

* * *

# EXPERIMENT_NOTES: Pharmacokinetics of intraperitoneal or intravenous injection in CD1 mice
# Assay type: in vivo
# CONDITION_NOTES: male, CD1, mouse, plasma, iv, 1 mg/kg, IV 1.0 mg/kg, CD1 mice plasma, 0.033 h; read-out: Mean
RECORDED_ENDPOINT: concentration at 0.033 h
Answer with the number, then the unit.

Give concentration at 0.033 h for Cc1ncsc1-c1ccc(CNC(=O)[C@@H]2C[C@@H](O)CN2C(=O)[C@@H](NC(=O)COCCOc2ccc(Nc3ncc(C(F)(F)F)c(NCc4cccc(N(C)S(C)(=O)=O)c4)n3)cc2)C(C)(C)C)cc1 1290 ng/mL

Dear colleague, please send me the reported concentration at 0.033 h for Cc1ncsc1-c1ccc(CNC(=O)[C@@H]2C[C@@H](O)CN2C(=O)[C@@H](NC(=O)COCCCOc2ccc(Nc3ncc(C(F)(F)F)c(NCc4cccc(N(C)S(C)(=O)=O)c4)n3)cc2)C(C)(C)C)cc1 when you can. 2070 ng/mL

Provide one value: measured concentration at 0.033 h of Cc1ncsc1-c1ccc(CNC(=O)[C@@H]2C[C@@H](O)CN2C(=O)[C@@H](NC(=O)CCOCCOc2ccc(Nc3ncc(C(F)(F)F)c(NCc4cccc(N(C)S(C)(=O)=O)c4)n3)cc2)C(C)(C)C)cc1 1860 ng/mL

Consider the compound CN(c1cccc(CNc2nc(Nc3ccc(OCCCOCCC(=O)NCCOc4cccc5c4C(=O)N(C4CCC(=O)NC4=O)C5=O)cc3)ncc2C(F)(F)F)c1)S(C)(=O)=O (centres unmarked) . State its measured concentration at 0.033 h. 32.4 ng/mL

Using the record for Cc1ncsc1-c1ccc(CNC(=O)[C@@H]2C[C@@H](O)CN2C(=O)[C@@H](NC(=O)CCOCCCOc2ccc(Nc3ncc(C(F)(F)F)c(NCc4cccc(N(C)S(C)(=O)=O)c4)n3)cc2)C(C)(C)C)cc1 , state its measured concentration at 0.033 h. 4110 ng/mL

* * *

# EXPERIMENT_NOTES: Pharmacokinetics of intraperitoneal or intravenous injection in CD1 mice
# Type: in vivo
# CONDITION_NOTES: male, CD1, mouse, plasma, ip, 10 mg/kg, IP 10 mg/kg, CD1 mice plasma, 24 h; read-out: Conc. (ng/mL) Mouse 1
RECORDED_ENDPOINT: concentration at 24 h (ng/mL)
Express the result in ng/mL but write the number alone.

Answer with the recorded concentration at 24 h for the molecule listed here: Cc1ncsc1-c1ccc(CNC(=O)[C@@H]2C[C@@H](O)CN2C(=O)[C@@H](NC(=O)CCOCCCOc2ccc(Nc3ncc(C(F)(F)F)c(NCc4cccc(N(C)S(C)(=O)=O)c4)n3)cc2)C(C)(C)C)cc1 0.824

Specify measured concentration at 24 h for Cc1ncsc1-c1ccc(CNC(=O)[C@@H]2C[C@@H](O)CN2C(=O)[C@@H](NC(=O)COCCOc2ccc(Nc3ncc(C(F)(F)F)c(NCc4cccc(N(C)S(C)(=O)=O)c4)n3)cc2)C(C)(C)C)cc1 . 1.35

* * *

# EXPERIMENT_NOTES: Pharmacokinetics of intraperitoneal or intravenous injection in CD1 mice
# Format: in vivo
# CONDITION_NOTES: male, CD1, mouse, plasma, iv, 1 mg/kg, IV 1.0 mg/kg, CD1 mice plasma, 0.083 h; read-out: Mean
# label = true (1) if concentration at 0.083 h < 300 ng/mL else false (0)

concentration at 0.083 h strictly < 300 ng/mL for this compound? Cc1ncsc1-c1ccc(CNC(=O)[C@@H]2C[C@@H](O)CN2C(=O)[C@@H](NC(=O)CCOCCCOc2ccc(Nc3ncc(C(F)(F)F)c(NCc4cccc(N(C)S(C)(=O)=O)c4)n3)cc2)C(C)(C)C)cc1 [Compound 103] false (0)

Determine whether this compound shows concentration at 0.083 h lower than 300 ng/mL (ties excluded): Cc1ncsc1-c1ccc(CNC(=O)[C@@H]2C[C@@H](O)CN2C(=O)[C@@H](NC(=O)COCCCOc2ccc(Nc3ncc(C(F)(F)F)c(NCc4cccc(N(C)S(C)(=O)=O)c4)n3)cc2)C(C)(C)C)cc1 [Compound 101] false (0)

Below 300 ng/mL on concentration at 0.083 h? Entry Cc1ncsc1-c1ccc(CNC(=O)[C@@H]2C[C@@H](O)CN2C(=O)[C@@H](NC(=O)COCCOc2ccc(Nc3ncc(C(F)(F)F)c(NCc4cccc(N(C)S(C)(=O)=O)c4)n3)cc2)C(C)(C)C)cc1 [Compound 100] true (1)

Item CN(c1cccc(CNc2nc(Nc3ccc(OCCCOCCC(=O)NCCOc4cccc5c4C(=O)N(C4CCC(=O)NC4=O)C5=O)cc3)ncc2C(F)(F)F)c1)S(C)(=O)=O (centres unmarked) [Compound 107] : concentration at 0.083 h beneath 300 ng/mL, strictly? true (1)

Criterion: concentration at 0.083 h strictly below 300 ng/mL. Is it met by Cc1ncsc1-c1ccc(CNC(=O)[C@@H]2C[C@@H](O)CN2C(=O)[C@@H](NC(=O)CCOCCOc2ccc(Nc3ncc(C(F)(F)F)c(NCc4cccc(N(C)S(C)(=O)=O)c4)n3)cc2)C(C)(C)C)cc1 [Compound 102] ? false (0)

* * *

# EXPERIMENT_NOTES: Pharmacokinetics of intraperitoneal or intravenous injection in CD1 mice
# Format: in vivo
# CONDITION_NOTES: IV 1.0 mg/kg, CD1 mice plasma, 8 h
RECORDED_ENDPOINT: Conc. (ng/mL) Mouse 2

[
  {
    "MOLECULE": "Cc1ncsc1-c1ccc(CNC(=O)[C@@H]2C[C@@H](O)CN2C(=O)[C@@H](NC(=O)CCOCCOc2ccc(Nc3ncc(C(F)(F)F)c(NCc4cccc(N(C)S(C)(=O)=O)c4)n3)cc2)C(C)(C)C)cc1 [Compound 102]",
    "RESULT": "BLOQ"
  },
  {
    "MOLECULE": "Cc1ncsc1-c1ccc(CNC(=O)[C@@H]2C[C@@H](O)CN2C(=O)[C@@H](NC(=O)COCCCOc2ccc(Nc3ncc(C(F)(F)F)c(NCc4cccc(N(C)S(C)(=O)=O)c4)n3)cc2)C(C)(C)C)cc1 [Compound 101]",
    "RESULT": "BLOQ"
  },
  {
    "MOLECULE": "Cc1ncsc1-c1ccc(CNC(=O)[C@@H]2C[C@@H](O)CN2C(=O)[C@@H](NC(=O)COCCOc2ccc(Nc3ncc(C(F)(F)F)c(NCc4cccc(N(C)S(C)(=O)=O)c4)n3)cc2)C(C)(C)C)cc1 [Compound 100]",
    "RESULT": "BLOQ"
  },
  {
    "MOLECULE": "CN(c1cccc(CNc2nc(Nc3ccc(OCCCOCCC(=O)NCCOc4cccc5c4C(=O)N(C4CCC(=O)NC4=O)C5=O)cc3)ncc2C(F)(F)F)c1)S(C)(=O)=O (stereo not shown) [Compound 107]",
    "RESULT": "BLOQ"
  }
]
